molecular target: Integrin protein αvβ3 (Homo sapiens, UniProt P05106+P06756); construct: purchased Chemicon International, Inc., Temecula, Calif., USA; assay: Receptor/ligand challenge assay of biotinylated vitronectin binding to plate-coated integrin αvβ3 (chemiluminescence); details: ratio of IC50 versus the Hood et al. antagonist in the same assay
Sequence (P06756 31-889 limits assumed): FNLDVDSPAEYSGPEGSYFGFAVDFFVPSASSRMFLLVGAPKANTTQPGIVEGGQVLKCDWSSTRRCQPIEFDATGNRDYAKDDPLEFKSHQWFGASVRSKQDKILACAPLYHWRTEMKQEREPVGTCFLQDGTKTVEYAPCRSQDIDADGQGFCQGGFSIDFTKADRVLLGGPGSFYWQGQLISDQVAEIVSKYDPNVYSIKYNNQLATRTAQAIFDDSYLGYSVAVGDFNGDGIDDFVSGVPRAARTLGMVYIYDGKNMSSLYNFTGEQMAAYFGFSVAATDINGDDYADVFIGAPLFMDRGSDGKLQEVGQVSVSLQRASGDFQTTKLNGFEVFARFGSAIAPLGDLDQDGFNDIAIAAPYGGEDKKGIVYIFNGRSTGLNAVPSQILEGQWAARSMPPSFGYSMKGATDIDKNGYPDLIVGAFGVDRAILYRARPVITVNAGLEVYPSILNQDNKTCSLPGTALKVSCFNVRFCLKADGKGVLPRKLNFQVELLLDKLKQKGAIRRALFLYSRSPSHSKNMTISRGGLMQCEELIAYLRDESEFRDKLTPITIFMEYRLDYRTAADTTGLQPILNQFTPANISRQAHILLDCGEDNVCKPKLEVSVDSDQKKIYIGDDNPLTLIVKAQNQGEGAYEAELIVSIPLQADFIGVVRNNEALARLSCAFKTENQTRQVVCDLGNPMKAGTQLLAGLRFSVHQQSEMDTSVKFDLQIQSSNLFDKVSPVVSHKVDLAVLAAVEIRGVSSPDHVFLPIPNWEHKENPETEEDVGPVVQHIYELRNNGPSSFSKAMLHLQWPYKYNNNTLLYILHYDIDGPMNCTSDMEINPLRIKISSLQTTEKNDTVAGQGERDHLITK
Sequence (P06756 891-1048 limits assumed): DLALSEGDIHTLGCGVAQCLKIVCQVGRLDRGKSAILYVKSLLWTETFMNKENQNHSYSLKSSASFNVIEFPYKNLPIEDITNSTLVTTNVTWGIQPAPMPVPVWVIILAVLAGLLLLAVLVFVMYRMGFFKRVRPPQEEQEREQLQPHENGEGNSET
Sequence (P05106 27-788): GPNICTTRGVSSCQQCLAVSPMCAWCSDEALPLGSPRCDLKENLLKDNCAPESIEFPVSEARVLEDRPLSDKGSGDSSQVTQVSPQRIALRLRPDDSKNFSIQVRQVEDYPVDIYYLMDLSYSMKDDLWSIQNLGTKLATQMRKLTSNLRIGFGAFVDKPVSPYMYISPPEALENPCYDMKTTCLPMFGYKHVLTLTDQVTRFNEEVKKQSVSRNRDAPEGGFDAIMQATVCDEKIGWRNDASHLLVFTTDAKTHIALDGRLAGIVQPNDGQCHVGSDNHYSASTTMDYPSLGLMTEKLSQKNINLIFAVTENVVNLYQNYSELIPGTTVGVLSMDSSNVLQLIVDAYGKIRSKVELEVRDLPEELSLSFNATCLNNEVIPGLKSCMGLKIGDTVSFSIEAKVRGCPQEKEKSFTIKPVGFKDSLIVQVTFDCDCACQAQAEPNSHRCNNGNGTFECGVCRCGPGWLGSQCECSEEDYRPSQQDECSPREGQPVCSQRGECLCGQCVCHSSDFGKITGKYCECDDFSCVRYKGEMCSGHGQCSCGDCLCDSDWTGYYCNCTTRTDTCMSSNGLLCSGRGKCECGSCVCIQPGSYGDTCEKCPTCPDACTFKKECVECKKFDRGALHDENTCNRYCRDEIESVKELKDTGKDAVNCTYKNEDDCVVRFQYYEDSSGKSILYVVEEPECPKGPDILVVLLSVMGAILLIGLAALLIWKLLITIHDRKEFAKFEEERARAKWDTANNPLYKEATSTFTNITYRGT
Entries and their IC50 Ratio Relative to Hood et al.
readout.type: IC50 Ratio Relative to Hood et al.

INSERT INTO results (compound, readout_value) VALUES
  ('NCCCCOC(=O)NCCS(=O)(=O)N[C@@H](CNC(=O)c1ccc(OCCNC2=NCCCN2)cc1)C(=O)O', 1.3),
  ('CCCCOC(=O)NCC(C)(C)COC(=O)NCCS(=O)(=O)N[C@@H](CNC(=O)c1ccc(OCCNC2=NCCCN2)cc1)C(=O)O', 17.3),
  ('NCCCOC(=O)NCCS(=O)(=O)N[C@@H](CNC(=O)c1ccc(OCCNC2=NCCCN2)cc1)C(=O)O', 3.6),
  ('NCCOC(=O)NCCS(=O)(=O)N[C@@H](CNC(=O)c1ccc(OCCNC2=NCCCN2)cc1)C(=O)O', 4.3);
